All values here come from the supplement of paper PMC10567573.

Assay: protein stability index of a GFP-peptide fusion (GPS, HEK-293T) (PSI 1-6); higher = more stable;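 also: 24-mer peptide tiles fused after GFP, lentivirally expressed, FACS-sorted into six equal bins by GFP/DsRed ratio, decoded by Illumina sequencing, PSI is the read-weighted mean bin number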
Settings: treatment: DMSO; c terminus: a fixed tail appended
Entries annotated with measured protein stability index
Please state the value as a number alone, without comment.

Inquiry: Given the sequence ALRLEVRAGPDSAGIALYSHEDVC [CARM1] , what is its reported protein stability index?
Reply text: 2.61

Inquiry: Another: NVEMDATPGIDLTRVLAEMREQYE [KRT13]
Reply text: 4.47

Inquiry: Another: ERCSDSDEEKKARRGRSPKGEFKD [CLINT1]
Reply text: 5.43

Inquiry: Another: PPQSPQGASSLPTTMNYPLWSQSY [MAGEA3]
Reply text: 3.45

----------
Entries annotated with measured protein stability index
Assay: protein stability index of a GFP-peptide fusion (GPS, HEK-293T) (PSI 1-6); higher = more stable
Details: treatment: MLN4924 1 uM, 8 h; c terminus: a fixed tail appended
Please state the value as a number alone, without comment.

As a guide, the following entries are already answered.
ordered_residues="NLLISLTFLTVTDLIGLPWVCFIY [SLC2A12]" quantity_measured="protein stability index" observed=3.19
ordered_residues="GSTLIFYKYCDHENAAFKDVALVL [TOR1AIP2]" quantity_measured="protein stability index" observed=2.58
ordered_residues="QSLDEPGGATFLLTAKQLIKSIVE [TRIM63]" quantity_measured="protein stability index" observed=2.32

Inquiry: Given the sequence LLMTADILAETGIRKTVKRLRKHQ [ELOA2] , what is its reported protein stability index?
Reply text: 2.84

Inquiry: Another: DWNEWRDYHLLHPVENIPEIILYW [SLC25A25]
Reply text: 2.2

Inquiry: Another: DPDECGSDYISEFRFAPNHTKELE [EPB41L3]
Reply text: 3.67

Inquiry: Another: RVNKEHEHKLKVVRDQISHCTVKL [TRIM9]
Reply text: 3.39

Inquiry: Another: LHVNGESLEMDSDEDDSEELEEDD [EHMT1]
Reply text: 5.28

----------
Assay: protein stability index of a GFP-peptide fusion (GPS, HEK-293T) (PSI 1-6); higher = more stable
Conditions: treatment: DMSO; c terminus: a fixed tail appended
quantity measured: protein stability index
Please state the value as a number alone, without comment.

As a guide, the following entries are already answered.
ordered_residues="PIPWFLPESRSLPSSPLRLGSYKA [PPEF2]" observed=2.99
ordered_residues="FLGLFFIVRFLESNWFVWVTQMNH [FADS1]" observed=3.69
ordered_residues="ERLNKEYQEIFQQLQRSWVKMDQK [TRIM43]" observed=3.23
ordered_residues="LGPRDAGTRGRLESAQATFQAHRD [ARFIP2]" observed=4.62

Inquiry: Given the sequence MGNILTCCINSHCGWPRGKDAPCY [DRICH1] , what is its reported protein stability index?
Reply text: 2.44

Inquiry: Another: AGQRGEPGPKGDPGEKSHWGEGLH [EMID1]
Reply text: 4.34

Inquiry: Another: GSGADRIYDLNIPAFVKFAYVAER [NCK2]
Reply text: 2.35

Inquiry: Another: QDEEMLELPAPAEVAAKNQSLEGD [MLH1]
Reply text: 5.37

Inquiry: Another: YEPLLSRVQAALVWERPARSALWC [RETREG3]
Reply text: 2.39

Inquiry: Another: ALPEAPAPLLPHITATSLLGTRES [BCL2L13]
Reply text: 4.67

Inquiry: Another: MDSKDVEVSSIQVRRKPQHGVCSQ [SERPINB9P1]
Reply text: 4.47

Inquiry: Another: LLLLLPTLQSITWQMIEQIQFIKL [HNF4A]
Reply text: 3.58

Inquiry: Another: ISLAKGPPGPKGDQGDEGKEGRPG [SCARA5]
Reply text: 5.24

Inquiry: Another: SIGRRRTELRRSGSSRSPGSKARA [PLEKHN1]
Reply text: 4.88

Inquiry: Another: LFRKDVDDATLSRLELERKIESLM [PRPH]
Reply text: 3.06

Inquiry: Another: KACNKAVAGEFSEPVTLETPAFMF [FSD1]
Reply text: 2.84

Inquiry: Another: LHRLKFLGFARRNWGNGKRPNLET [GDAP1]
Reply text: 2.22
